The measured values listed here are drawn from patent US20080045499A1.

molecular target: Presenilin-1-comprised γ-secretase (Homo sapiens); construct: expressed in transfected cells; host or cells: mouse fibroblasts derived from PS1/PS2 double knockout cells, pCF vector; assay: Aβ1-x ELISA in Presenilin-1 transfected PS1/PS2 double knockout mouse fibroblasts; format: cell-based; settings: column B; Aβ1-x, Presenilin-1 transfected cells, overnight; read-out: PS1 EC50 (nM) B
Lab note: anything with EC50 below 50 nM is marked MET; values at 50 nM or higher are marked NOT MET.

>>> qualitative_label("C[C@H](c1ccc(F)cc1CCCC(=O)O)N(c1cc(F)ccc1F)S(=O)(=O)c1ccc(Cl)cc1 [reference compound]")
"MET"
>>> qualitative_label("O=C1NCCCC[C@H]1N(Cc1ccc2nccnc2c1)S(=O)(=O)c1ccc(Cl)cc1")
"MET"
>>> qualitative_label("O=C1NCCCC[C@H]1N(Cc1ccc(Br)cc1)S(=O)(=O)c1ccc(Cl)cc1")
"NOT MET"
>>> qualitative_label("Cn1nnc2cc(CN([C@@H]3CCCCNC3=O)S(=O)(=O)c3ccc(Cl)nc3)ccc21")
"NOT MET"
>>> qualitative_label("O=C(NCc1ccccc1)c1ccc(CN([C@@H]2CCCCNC2=O)S(=O)(=O)c2ccc(Cl)cc2)cc1")
"MET"
>>> qualitative_label("COc1ccc(CN([C@@H](CO)CC(C)C)S(=O)(=O)c2ccc(Cl)cc2)cc1OC")
"NOT MET"
>>> qualitative_label("O=C1NCCCC[C@H]1N(CCCN1C(=O)c2ccccc2C1=O)S(=O)(=O)c1ccc(Cl)cc1")
"NOT MET"
>>> qualitative_label("O=C1NCCCC[C@H]1N(Cc1ccc(Br)cc1)S(=O)(=O)c1ccc(Cl)nc1")
"NOT MET"
>>> qualitative_label("CCS(=O)(=O)CC[C@@H](C)N(c1cc(Cl)ccc1Cl)S(=O)(=O)c1ccc(Cl)cc1")
"NOT MET"

* * *

Biological target: Presenilin-1-comprised γ-secretase (Homo sapiens, UniProt P49768)
Construct: expressed in transfected cells; host or cells: mouse fibroblasts derived from PS1/PS2 double knockout cells, pCF vector
Assay: Aβ1-x ELISA in Presenilin-1 transfected PS1/PS2 double knockout mouse fibroblasts
Assay type: cell-based
Conditions: column A; Aβ1-x, Presenilin-1 transfected cells, overnight; read-out: PS1 EC50 (nM) A
Description: A131-x represents any Aβ peptides longer than Aβ1-23, including Aβ38, Aβ40, and Aβ42, since Aβ1-x is defined operationally by an ELISA assay using proprietary antibody mAb 266 for capture and proprietary antibody mAb 3D6 for detection. […] Supernatants from positive clones were produced in large quantities for further purification of monoclonal antibodies. […] Cell culture medium is then removed from the transfected cell lines and analyzed for Aβ1-x levels by ELISA assay, as described in Example 1. […]
reported.metric: EC50 (nM)

>>> assay_result("O=C(NCc1ccccc1)c1ccc(CN([C@@H]2CCCCNC2=O)S(=O)(=O)c2ccc(Cl)cc2)cc1")
19
>>> assay_result("COc1ccc(CN([C@@H](CO)CC(C)C)S(=O)(=O)c2ccc(Cl)cc2)cc1OC")
385
>>> assay_result("O=C1NCCCC[C@H]1N(Cc1ccc(-c2ncon2)cc1)S(=O)(=O)c1ccc(Cl)cc1")
20
>>> assay_result("O=C1NCCCC[C@H]1N(C/C=C/c1cccnc1)S(=O)(=O)c1ccc(Cl)cc1")
46
>>> assay_result("O=C1NCCCC[C@H]1N(CCCN1C(=O)c2ccccc2C1=O)S(=O)(=O)c1ccc(Cl)cc1")
3720
>>> assay_result("COc1ccc(CN(C2CCCCNC2=O)S(=O)(=O)c2ccc(Cl)cc2)cc1OC (stereo not drawn)")
228
>>> assay_result("O=C1NCCCC[C@H]1N(Cc1ccc(Br)cc1)S(=O)(=O)CC(F)(F)F")
1280
>>> assay_result("O=C1NCCCC[C@H]1N(Cc1ccc(Br)cc1)S(=O)(=O)c1ccc(Cl)cc1")
106
>>> assay_result("COc1ccc(CN([C@@H]2CCCCNC2=O)S(=O)(=O)c2ccc(Cl)cc2)cc1OC")
91

* * *

target: Presenilin-1-comprised γ-secretase (Homo sapiens, UniProt P49768); construct: expressed in transfected cells; host or cells: mouse fibroblasts derived from PS1/PS2 double knockout cells, pCF vector; assay: Aβ1-x ELISA in Presenilin-1 transfected PS1/PS2 double knockout mouse fibroblasts; assay type: cell-based; conditions: column B; Aβ1-x, Presenilin-1 transfected cells, overnight; read-out: PS1 EC50 (nM) B
reported.metric: EC50 (nM)

>>> assay_result("O=C1NCCCC[C@H]1N(Cc1cc2ccccc2o1)S(=O)(=O)c1ccc(Cl)cc1")
63
>>> assay_result("O=C1NCCCC[C@H]1N(Cc1cnc(N2CCCCC2)s1)S(=O)(=O)c1ccc(Cl)cc1")
263
>>> assay_result("COc1ccc(CN([C@@H]2CCCCNC2=O)S(=O)(=O)c2ccc(Cl)cc2)cc1OC")
89
>>> assay_result("O=C1NCCCC[C@H]1N(Cc1ccc(Br)cc1)S(=O)(=O)CC(F)(F)F")
686
>>> assay_result("C/C(=C\\c1ccccc1)CN([C@@H]1CCNC1=O)S(=O)(=O)c1ccc(Cl)cc1")
1980

* * *

target: Presenilin-2-comprised γ-secretase (Homo sapiens, UniProt P49810); construct: expressed in transfected cells; host or cells: mouse fibroblasts derived from PS1/PS2 double knockout cells, pCF vector; experiment: Aβ1-x ELISA in Presenilin-2 transfected PS1/PS2 double knockout mouse fibroblasts; type: cell-based; details: column B; Aβ1-x, Presenilin-2 transfected cells, overnight; read-out: PS2 EC50* (nM) B
Entries and their log10 of EC50
reported.metric: log10 of EC50 (log10 of the value in nM)

>>> assay_result("Cn1nnc2cc(CN([C@@H]3CCCCNC3=O)S(=O)(=O)c3ccc(Cl)nc3)ccc21")
3.26
>>> assay_result("C[C@H](NC(=O)[C@@H](O)c1cc(F)cc(F)c1)C(=O)Nc1cc(C(C)(C)c2ccccc2)n[nH]1")
1.36
>>> assay_result("O=C1NCCCC[C@H]1N(Cc1ccc2nccnc2c1)S(=O)(=O)c1ccc(Cl)cc1")
3.02
>>> assay_result("CCC(C)N(C(C)CC)S(=O)(=O)c1ccc(Cl)nc1 (stereo not drawn)")
3.52
>>> assay_result("C[C@H](c1ccc(F)cc1CCCC(=O)O)N(c1cc(F)ccc1F)S(=O)(=O)c1ccc(Cl)cc1 [reference compound]")
2.39
>>> assay_result("O=C1NCCCC[C@H]1N(Cc1ccc(-c2ncon2)cc1)S(=O)(=O)c1ccc(Cl)cc1")
2.19
>>> assay_result("C[C@H](NC(=O)[C@@H](O)c1cc(F)cc(F)c1)C(=O)N[C@H](C(=O)NCC1CN(c2ccccc2)CCO1)c1ccccc1 (stereo partly drawn)")
1.64
>>> assay_result("C[C@@H](NC(=O)c1ccc(CN([C@@H]2CCCCNC2=O)S(=O)(=O)c2ccc(Cl)cc2)cc1)c1ccccc1")
1.96
>>> assay_result("O=C1NCCCC[C@H]1N(Cc1cc2ccccc2o1)S(=O)(=O)c1ccc(Cl)cc1")
3.27
>>> assay_result("O=C1NCCCC[C@H]1N(C/C=C/c1cccnc1)S(=O)(=O)c1ccc(Cl)cc1")
3.44
>>> assay_result("CCS(=O)(=O)CC[C@@H](C)N(c1cc(Cl)ccc1Cl)S(=O)(=O)c1ccc(Cl)cc1")
3.76
>>> assay_result("O=C1NCCCC[C@H]1N(Cc1ccc2snnc2c1)S(=O)(=O)c1ccc(Cl)cc1")
2.98
>>> assay_result("C[C@H](NC(=O)c1ccc(CN([C@@H]2CCCCNC2=O)S(=O)(=O)c2ccc(Cl)cc2)cc1)c1ccccc1")
2.89
>>> assay_result("COc1ccc(CN(C2CC(C)CCC2C)S(=O)(=O)c2ccc(Cl)cc2)cc1 (stereo not drawn)")
3.54
>>> assay_result("O=C1NCCCC[C@H]1N(Cc1ccc(Br)cc1)S(=O)(=O)c1ccc(Cl)nc1")
3.36

* * *

molecular target: Presenilin-1-comprised γ-secretase (Homo sapiens, UniProt P49768); construct: expressed in transfected cells; host or cells: mouse fibroblasts derived from PS1/PS2 double knockout cells, pCF vector; test: Aβ1-x ELISA in Presenilin-1 transfected PS1/PS2 double knockout mouse fibroblasts; assay type: cell-based; details: column B; Aβ1-x, Presenilin-1 transfected cells, overnight; read-out: PS1 EC50 (nM) B
Lab note: anything with EC50 below 60 nM is marked met; values at 60 nM or higher are marked not met.

>>> qualitative_label("O=C1NCCCC[C@H]1N(C/C=C/c1cccnc1)S(=O)(=O)c1ccc(Cl)cc1")
"not met"
>>> qualitative_label("Cn1nnc2cc(CN([C@@H]3CCCCNC3=O)S(=O)(=O)c3ccc(Cl)cc3)ccc21")
"not met"
>>> qualitative_label("C[C@@H](NC(=O)c1ccc(CN([C@@H]2CCCCNC2=O)S(=O)(=O)c2ccc(Cl)cc2)cc1)c1ccccc1")
"met"
>>> qualitative_label("COc1ccc(CN(C2CCCCNC2=O)S(=O)(=O)c2ccc(Cl)cc2)cc1OC (centres unmarked)")
"not met"
>>> qualitative_label("C[C@H](NC(=O)[C@@H](O)c1cc(F)cc(F)c1)C(=O)Nc1cc(C(C)(C)c2ccccc2)n[nH]1")
"met"
>>> qualitative_label("COc1ccc(CN(C2CCCCC2C)S(=O)(=O)c2ccc(Cl)cc2)cc1OC (centres unmarked)")
"met"
>>> qualitative_label("COc1ccc(CN(C2CC(C)CCC2C)S(=O)(=O)c2ccc(Cl)cc2)cc1 (centres unmarked)")
"not met"
>>> qualitative_label("O=C1NCCCC[C@H]1N(Cc1ccc(-c2ncon2)cc1)S(=O)(=O)c1ccc(Cl)cc1")
"met"
